- experimental.system: human α4β2 AChR (Homo sapiens, UniProt P17787+P43681)
- Sequence (P43681 29-627 limits assumed): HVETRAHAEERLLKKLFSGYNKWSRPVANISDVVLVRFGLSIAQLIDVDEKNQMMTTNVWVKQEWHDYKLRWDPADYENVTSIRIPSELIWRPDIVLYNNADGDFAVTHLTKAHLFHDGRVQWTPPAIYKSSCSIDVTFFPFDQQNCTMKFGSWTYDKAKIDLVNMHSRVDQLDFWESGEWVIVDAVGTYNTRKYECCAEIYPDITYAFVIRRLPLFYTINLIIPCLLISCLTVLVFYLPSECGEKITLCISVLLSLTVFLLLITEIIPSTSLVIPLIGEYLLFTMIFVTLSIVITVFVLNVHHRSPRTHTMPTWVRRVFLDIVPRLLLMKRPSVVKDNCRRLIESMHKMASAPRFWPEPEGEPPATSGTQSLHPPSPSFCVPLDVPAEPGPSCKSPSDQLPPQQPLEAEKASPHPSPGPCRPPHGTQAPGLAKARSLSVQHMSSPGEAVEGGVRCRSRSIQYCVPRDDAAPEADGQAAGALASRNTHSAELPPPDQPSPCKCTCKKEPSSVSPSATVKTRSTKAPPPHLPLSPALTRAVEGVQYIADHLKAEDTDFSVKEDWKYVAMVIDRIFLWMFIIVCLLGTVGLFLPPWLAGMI
- Sequence (P17787 26-502): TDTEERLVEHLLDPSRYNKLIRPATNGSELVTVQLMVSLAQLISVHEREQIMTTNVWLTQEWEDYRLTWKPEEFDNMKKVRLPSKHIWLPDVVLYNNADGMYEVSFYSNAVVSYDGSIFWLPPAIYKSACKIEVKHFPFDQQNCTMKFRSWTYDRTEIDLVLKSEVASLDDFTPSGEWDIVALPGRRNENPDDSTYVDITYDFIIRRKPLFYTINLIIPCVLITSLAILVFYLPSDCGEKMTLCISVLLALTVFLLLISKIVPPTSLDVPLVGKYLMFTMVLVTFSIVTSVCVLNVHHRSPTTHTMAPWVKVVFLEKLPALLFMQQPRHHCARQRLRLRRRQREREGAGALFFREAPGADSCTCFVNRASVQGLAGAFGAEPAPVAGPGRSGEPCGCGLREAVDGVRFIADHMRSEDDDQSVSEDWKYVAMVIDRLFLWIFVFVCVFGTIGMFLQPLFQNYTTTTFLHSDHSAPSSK
- method.notes: cell-based
- Type: cell-based
Where a name gives a salt, the structure may show the parent alone.
measured.parameter: nH (Hill coefficient)
Please respond with just the number, no unit label.

Example entries and their recorded answers appear below.
compound="CNC1(C)C2CCC(C2)C1(C)C (racemic) [(±)-Mecamylamine, (±)-mecamylamine hydrochloride]" measured_parameter="nH (Hill coefficient)" reported=1.17
compound="CN(C)CCC=C1c2ccccc2CCc2ccccc21 [Amitriptyline, amitriptyline hydrochloride]" measured_parameter="nH (Hill coefficient)" reported=1.50
compound="CN(C)CCC=C1c2ccccc2COc2ccccc21 [Doxepin, doxepin hydrochloride]" measured_parameter="nH (Hill coefficient)" reported=1.32

Okay, next one:
nH (Hill coefficient) measured on CN(C)CCCN1c2ccccc2CCc2ccccc21 [Imipramine, Imipramine hydrochloride] = 1.39
